Recorded values, source patent US9000025B2.

target: autotaxin (ATX) (Homo sapiens); construct: conditioned medium from the human melanoma cell line, MDA-MB-4355, which endogenously expresses autotaxin; serum-free conditioned medium, concentrated 20-fold; experiment: Native Autotaxin Choline Release Assay; conditions: autotaxin in conditioned medium from human melanoma cell line; choline released from LPC; read-out: MDA-MB-435S Assay IC50
Property: IC50; scope: individual compounds

Examples with their reported IC50 follow.
* CCn1cc(-n2c(C)c(Sc3ccc(F)c(C(=O)O)c3)c3ccc(Cl)cc32)cn1 | < 300 nM
* Cc1ccc(C(=O)O)cc1Sc1c(C)n(-c2cnn(C)c2)c2cc(Cl)ccc12 | > 1000 nM

Request: // returns reported IC50 for input Cc1c(Sc2cccc(C(=O)O)c2)c2ccc(Cl)c(F)c2n1-c1cnn(C2CCCC2)c1
Response: < 300 nM

Request: // returns reported IC50 for input CCn1cc(-n2c(C)c(Sc3cc(F)cc(C(=O)O)c3)c3ccc(Cl)c(F)c32)cn1
Response: < 300 nM

###

target: autotaxin (ATX) (Homo sapiens); construct: conditioned medium from the human melanoma cell line, MDA-MB-4355, which endogenously expresses autotaxin; serum-free conditioned medium, concentrated 20-fold; test: Native Autotaxin Choline Release Assay; conditions: autotaxin in conditioned medium from human melanoma cell line; choline released from LPC; read-out: MDA-MB-435S Assay IC50
Property: IC50; scope: individual molecules

Examples with their reported IC50 follow.
* Cc1c(Sc2cc(F)cc(C(=O)O)c2)c2ccc(Cl)c(F)c2n1-c1cnn(C(C)C)c1 | < 300 nM
* CCc1cncc(-n2c(C)c(Sc3cccc(C(=O)O)c3F)c3ccc(Cl)cc32)c1 | < 300 nM
* Cc1ccc(-n2c(C)c(Sc3cccc(C(=O)O)c3)c3ccc(Cl)cc32)cn1 | < 300 nM
* Cc1c(Sc2cccc(C(=O)O)c2)c2ccc(Cl)cc2n1-c1cnsc1 | < 300 nM
* Cc1c(Sc2cccc(CC(=O)O)c2)c2cc(Cl)ccc2n1C | > 1000 nM
* Cc1c(Sc2cccc(C(=O)O)c2)c2ccc(Cl)cc2n1-c1cccc(Cl)c1 | < 300 nM
* Cc1cncc(-n2c(C)c(Sc3cccc(CC(=O)O)c3)c3ccc(Cl)cc32)c1 | < 300 nM

Kindly consider the entry below.
Request: // returns reported IC50 for input Cc1c(Sc2cccc(C(=O)O)c2)c2ccc(Cl)cc2n1Cc1ccc(F)cc1
Response: > 1000 nM

###

molecular target: autotaxin (ATX) (Homo sapiens, UniProt Q13822); construct: conditioned medium from the human melanoma cell line, MDA-MB-4355, which endogenously expresses autotaxin; serum-free conditioned medium, concentrated 20-fold; assay: Native Autotaxin Choline Release Assay; conditions: autotaxin in conditioned medium from human melanoma cell line; choline released from LPC; read-out: MDA-MB-435S Assay IC50
Observed property: IC50

Examples with their reported IC50 follow.
* CCn1cc(-n2c(C)c(Sc3cccc(C(=O)NS(C)(=O)=O)c3)c3ccc(Cl)c(F)c32)cn1 | < 0.3 µM
* Cc1c(Sc2cccc(C(C)C(=O)O)c2)c2ccc(Cl)cc2n1-c1cccnc1 (centres unmarked) | < 0.3 µM
* Cc1[nH]c2c(Cl)cccc2c1Sc1cccc(CC(=O)O)c1 | > 1 µM
* Cc1c(Sc2cccc(C(=O)O)c2)c2ccc(Cl)cc2n1Cc1ccccn1 | 0.3 to 1 µM
* CCc1cncc(-n2c(C)c(Sc3cccc(C(=O)O)c3)c3ccc(Cl)c(F)c32)c1 | < 0.3 µM

Request: // returns reported IC50 for input CCCn1cc(-n2c(C)c(Sc3cccc(CC(=O)O)c3)c3ccc(Cl)cc32)cn1
Response: < 0.3 µM

Request: // returns reported IC50 for input Cc1cncc(-n2c(C)c(Sc3cccc(C(=O)O)c3)c3ccc(Cl)c(F)c32)c1
Response: < 0.3 µM

Request: // returns reported IC50 for input Cc1[nH]c2cccc(Cl)c2c1Sc1cccc(B(O)O)c1
Response: > 1 µM
